The origin of these recorded values is patent US20250027090.

Measured on: thrombin (native human beta-thrombin) (Homo sapiens, UniProt P00734;P00734 P00734:328-363,P00734:364-622)
Test: ITC; physiological buffer pH 7.4, 25 C
Readout kind: pKd
Formally, pKd is defined as -log10 of the concentration c, with c in mol/L.

Entry D-6 aptamer (ssDNA) DNA: CGGATCCAGTTACGGACTGAACAGAAGGGTGGTGTGGTTGGACTGTTCATTCAGTAAGCTTCGG , pKd reported as 7.57
